# Test system: 377384-186-R-J1-PDC complex spheroid viability
# protocol.text: Anticancer human tumor 377384-186-R-J1-PDC patient-derived pancreatic carcinoma cell line growth inhibition [CLK]
# assay.context: second compound 10 µM; first compound 0.0949 µM; stronger effect = lower value
The following compounds are listed with their measured viability, T/C values.
Lab book: enter the figure in %, no units written.

The examples below pair each entry with its known result.
| compound | viability, T/C / % |
| --- | --- |
| NC(=O)C(=Cn1cnc(-c2cc(C(F)(F)F)cc(C(F)(F)F)c2)n1)c1cncnc1 + CNC(=O)c1ccc(Nc2nc(OC3CCCC3)c3c(-c4ccc5nc(C)oc5c4)c[nH]c3n2)c(OC)c1 | 12.8 |
| C=CC(=O)Nc1cc(Nc2nccc(-c3cn(C)c4ccccc34)n2)c(OC)cc1N(C)CCN(C)C + CN1CCN(c2cc(C(=O)Nc3cc4cc(-c5cnn(C)c5)ccc4cn3)ccn2)CC1 | 2.03 |

Consider the additional compound presented here.
Exercise: Item: NC(=O)C(=Cn1cnc(-c2cc(C(F)(F)F)cc(C(F)(F)F)c2)n1)c1cncnc1 + CN1CCN(c2cc(C(=O)Nc3cc4cc(-c5cnn(C)c5)ccc4cn3)ccn2)CC1 Test system: 377384-186-R-J1-PDC complex spheroid viability Read-out: viability, T/C Value: ?
Key: 1.5

###

# System: 377384-186-R-J1-PDC complex spheroid viability
# protocol.text: Anticancer human tumor 377384-186-R-J1-PDC cell line growth inhibition [CLK];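 further: luminescence signal used as a stand-in for viable cells; spheroids exposed to agents for 7 days before reading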
# assay.context: second compound 0.316 µM; first compound 0.000949 µM; stronger effect = lower value
# Text: A high-throughput screen of multi-cell type tumor spheroids was designed to identify active combinations of […] and targeted small molecules. Complex spheroids include a stromal component modeled by human endothelial cells (HUVEC) and fibroblasts modeled by human mesenchymal stem cells (MSCs). […] Compounds. […] If the clinical Cmax for an agent had not been determined, the highest concentration tested was 10 microM. […]
The following compounds are listed with their measured viability, T/C values.
Lab book: enter the figure in %, no units written.

| compound | viability, T/C [%] |
| --- | --- |
| CC(C)CC(NC(=O)C(Cc1ccccc1)NC(=O)c1cnccn1)B(O)O (centres undefined) + CNC(=O)c1ccc(Nc2nc(OC3CCCC3)c3c(-c4ccc5nc(C)oc5c4)c[nH]c3n2)c(OC)c1 | 21.4 |
| C=CC(=O)Nc1cc(Nc2nccc(-c3cn(C)c4ccccc34)n2)c(OC)cc1N(C)CCN(C)C + CNC(=O)c1ccc(Nc2nc(OC3CCCC3)c3c(-c4ccc5nc(C)oc5c4)c[nH]c3n2)c(OC)c1 | 20.6 |
| CC(C)CC(NC(=O)C(Cc1ccccc1)NC(=O)c1cnccn1)B(O)O (centres undefined) + CN1CCN(c2cc(C(=O)Nc3cc4cc(-c5cnn(C)c5)ccc4cn3)ccn2)CC1 | 22.2 |

Consider the additional compound presented here.
Exercise: Query (compound): C=CC(=O)Nc1cc(Nc2nccc(-c3cn(C)c4ccccc34)n2)c(OC)cc1N(C)CCN(C)C + CN1CCN(c2cc(C(=O)Nc3cc4cc(-c5cnn(C)c5)ccc4cn3)ccn2)CC1 ; field requested: viability, T/C
Key: 26.1

###

# Test system: 377384-186-R-J1-PDC complex spheroid viability
# protocol.text: Anticancer human tumor 377384-186-R-J1-PDC cell line growth inhibition [CLK]; active = viability on the fitted dose curve at most 10% of control; inactive = the rest;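 further: luminescence signal used as a stand-in for viable cells; spheroids exposed to agents for 7 days before reading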
# assay.context: second compound 3.16 µM; first compound 0.316 µM
# output must be one of active, inactive

Reference set (2 entries):
| compound | class.name |
| --- | --- |
| C=CC(=O)N1CCN(c2nc(=O)n(-c3c(C)ccnc3C(C)C)c3nc(-c4c(O)cccc4F)c(F)cc23)C(C)C1 (stereo not drawn) + CN1CCN(c2cc(C(=O)Nc3cc4cc(-c5cnn(C)c5)ccc4cn3)ccn2)CC1 | active |
| C=C(F)C(=O)N1CCN(c2nc(OCC3CCCN3C)nc3c2CCN(c2cccc4cccc(Cl)c24)C3)CC1CC#N (stereo not drawn) + CN1CCN(c2cc(C(=O)Nc3cc4cc(-c5cnn(C)c5)ccc4cn3)ccn2)CC1 | active |

Next, consider the following compound.
Exercise: Tell me the recorded outcome of this test for COc1c(OCCCN2CCOCC2)ccc2c3n(c(=NC(=O)c4cnc(N)nc4)nc12)CCN3 + CNC(=O)c1ccc(Nc2nc(OC3CCCC3)c3c(-c4ccc5nc(C)oc5c4)c[nH]c3n2)c(OC)c1 .
Key: inactive

Data provenance: PubChem BioAssay AID2060616
